- Tested Target: HLA-A*0206 (human)
- Procedure Text: competition with 125I probe peptide, purified HLA class I
- Assay Context: remark: other sources report otherwise
Observation Type: IC50

Ask: Item under review: KMFCQLAKT [… p53.132] . Reported IC50?
Result: 0.0925 µM
